- Test system: F1F0-ATPase (Bos taurus, UniProt P13621)
- Test description: Inhibition of ATP hydrolysis by the F1F0-ATPase
- Assay type: biochemical
- Condition description: IC40: concentration for 40% inhibition
Measurement kind: ATP Hydrolysis (IC40 μM)

>  <Record smiles>
COc1ccc(-c2ccc(NC(=NC(=O)c3cccc(Cl)c3)NCCc3c[nH]cn3)cc2)cc1

>  <Measurement kind>
ATP Hydrolysis (IC40 μM)

>  <Test result>
>10 µM

$$$$
>  <Record smiles>
Cc1cccc(C(=O)N=C(NCCc2c[nH]cn2)Nc2ccccc2-c2ccccc2)c1

>  <Measurement kind>
ATP Hydrolysis (IC40 μM)

>  <Test result>
>20 µM

$$$$
>  <Record smiles>
O=C(N=C(NCCc1c[nH]cn1)Nc1ccccc1-c1ccccc1)c1cccc(Cl)c1

>  <Measurement kind>
ATP Hydrolysis (IC40 μM)

>  <Test result>
>10 µM

$$$$
>  <Record smiles>
O=C(N=C(NCCc1c[nH]cn1)Nc1cccc(-c2ccccc2)c1)c1cccc(F)c1

>  <Measurement kind>
ATP Hydrolysis (IC40 μM)

>  <Test result>
>10 µM

$$$$
>  <Record smiles>
O=C(N=C(NCCc1c[nH]cn1)Nc1ccccc1-c1ccccc1)c1ccccc1Cl

>  <Measurement kind>
ATP Hydrolysis (IC40 μM)

>  <Test result>
>30 µM

$$$$
>  <Record smiles>
O=C(N=C(NCCc1c[nH]cn1)Nc1ccc(-c2ccc(Cl)cc2)cc1)c1cccc(Cl)c1

>  <Measurement kind>
ATP Hydrolysis (IC40 μM)

>  <Test result>
>10 µM

$$$$
>  <Record smiles>
O=C(N=C(NCCc1c[nH]cn1)Nc1ccc(-c2ccccc2)cc1)c1cccc([N+](=O)[O-])c1

>  <Measurement kind>
ATP Hydrolysis (IC40 μM)

>  <Test result>
>10 µM

$$$$
>  <Record smiles>
O=C(/N=C(/NCCn1ccnc1)Nc1ccc(-c2ccccc2)cc1)c1cccc(Cl)c1

>  <Measurement kind>
ATP Hydrolysis (IC40 μM)

>  <Test result>
>10 µM

$$$$
